Target: FGFR1 (UniProt P11362)
Sequence (P11362 whole entry, looked up): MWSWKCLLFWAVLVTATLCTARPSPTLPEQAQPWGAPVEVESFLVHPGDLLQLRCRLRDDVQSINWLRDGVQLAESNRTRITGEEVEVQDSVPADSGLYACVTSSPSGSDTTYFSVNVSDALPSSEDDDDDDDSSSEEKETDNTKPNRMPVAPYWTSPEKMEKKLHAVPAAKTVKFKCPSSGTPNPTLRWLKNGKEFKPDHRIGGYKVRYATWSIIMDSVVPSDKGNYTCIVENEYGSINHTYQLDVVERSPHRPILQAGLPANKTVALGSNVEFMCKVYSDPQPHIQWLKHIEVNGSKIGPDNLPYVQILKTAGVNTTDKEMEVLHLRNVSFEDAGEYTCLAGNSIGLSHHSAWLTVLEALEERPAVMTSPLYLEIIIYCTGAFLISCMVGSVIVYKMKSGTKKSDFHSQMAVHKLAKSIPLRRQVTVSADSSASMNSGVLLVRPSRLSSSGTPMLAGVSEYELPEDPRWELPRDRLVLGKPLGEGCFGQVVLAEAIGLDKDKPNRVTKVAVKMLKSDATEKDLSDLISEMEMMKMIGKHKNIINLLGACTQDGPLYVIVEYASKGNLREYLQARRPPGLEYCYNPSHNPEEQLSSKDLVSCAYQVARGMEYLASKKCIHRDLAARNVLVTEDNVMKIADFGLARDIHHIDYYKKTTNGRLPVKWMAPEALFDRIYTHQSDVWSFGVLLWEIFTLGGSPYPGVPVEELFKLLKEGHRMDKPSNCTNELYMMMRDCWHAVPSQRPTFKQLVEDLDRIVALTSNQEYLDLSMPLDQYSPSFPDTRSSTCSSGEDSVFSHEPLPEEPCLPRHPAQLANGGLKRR
Assay: phosphorylation enrichment, bacterial display (enrichment ratio); higher = better substrate or ligand; peptides without Tyr show the background;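 further: 11-residue human phosphosite peptides and single-mutation variants displayed on the E. coli surface, counted by deep sequencing, each peptide's frequency after selection divided by its frequency in the unselected input library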;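 further: frequency after pTyr selection over input frequency; kinase dosed for 20-30% of maximal phosphorylation in three min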
MEASURED METRIC: phosphorylation enrichment
Answer with a bare number; do not write a unit.

Problem: # phosphorylation enrichment lookup, item QTLTDYDIRFY [CSNK2A1_Y131]
Solution: 0.62

Problem: Also HLNLTYRILSF [MMP23B_Y95_F91L] ?
Solution: 0.645

Problem: Also SPPPAYTPMSG [ERBB4_Y1056] ?
Solution: 0.41

Problem: Also SGIYQYIIAKF [FOXL2_Y83] ?
Solution: 6.4

Problem: Also KVFRVYQGQQP [MUTYH_Y494] ?
Solution: 0.439

Problem: Also LEIETCRRLLD [KRT12_Y429_Y429C] ?
Solution: 0.722

Problem: Also TTPAVYARVTK [CTRB2_Y246_A250T] ?
Solution: 0.262

Problem: Also LAGRYYALRSM [CKB_Y174_K177R] ?
Solution: 0.751

Problem: Also MSRDIYSTDFF [NTRK1_Y676_YF] ?
Solution: 2.6

Problem: Also GARGRYIMGGP [TNK1_Y277_V278I] ?
Solution: 0.789

Problem: Also FKRAVYCIIGR [NUP93_Y391_YF] ?
Solution: 0.511

Problem: Also TNFPLYLRSLE [MTM1_Y71_R69P_YF] ?
Solution: 0.449

Problem: Also FHKALYTVRTF [PDE6C_Y266_S270T_YF] ?
Solution: 0.582

Problem: Also KILGRYFETSS [PAX2_Y72_G76S_YF] ?
Solution: 0.469

---

Target: Fyn (UniProt P06241)
Sequence (P06241 whole entry, looked up): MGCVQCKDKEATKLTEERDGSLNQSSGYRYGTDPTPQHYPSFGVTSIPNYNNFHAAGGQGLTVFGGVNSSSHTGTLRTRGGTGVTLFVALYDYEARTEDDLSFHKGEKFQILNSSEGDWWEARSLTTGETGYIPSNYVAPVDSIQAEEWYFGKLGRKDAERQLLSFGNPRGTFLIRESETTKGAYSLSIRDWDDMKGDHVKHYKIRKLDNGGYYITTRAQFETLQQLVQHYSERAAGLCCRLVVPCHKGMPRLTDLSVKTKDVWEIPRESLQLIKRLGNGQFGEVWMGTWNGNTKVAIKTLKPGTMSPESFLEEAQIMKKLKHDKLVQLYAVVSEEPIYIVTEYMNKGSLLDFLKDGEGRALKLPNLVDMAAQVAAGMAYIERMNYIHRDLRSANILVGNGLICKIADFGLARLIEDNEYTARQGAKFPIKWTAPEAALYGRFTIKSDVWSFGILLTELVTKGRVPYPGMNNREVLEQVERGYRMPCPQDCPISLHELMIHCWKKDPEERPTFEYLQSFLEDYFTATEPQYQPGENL
Assay: phosphorylation enrichment, bacterial display (enrichment ratio); higher = better substrate or ligand; peptides without Tyr show the background
Entries are sorted into classes by phosphorylation enrichment as follows: LOW: < 0.4; MEDIUM: ≥ 0.4 and < 0.6; HIGH: ≥ 0.6

Problem: Band for the recorded phosphorylation enrichment of CTTIHYDFMCN [TP53_Y234_N235D_YF] ?
Solution: HIGH

Problem: Also TPGPNYRPGYN [USH2A_Y463] ?
Solution: MEDIUM

Problem: Also QEEPEYWDQET [HLA-A_Y83_G80E] ?
Solution: HIGH

Problem: Also LFIGQYSGKKE [L1CAM_Y1229_S1224L] ?
Solution: HIGH

Problem: Also AGIKAYQSCLQ [ADGRA2_Y377_T375K] ?
Solution: LOW

Problem: Also TISPYYCQSLF [CRYAA_Y48_R49C] ?
Solution: HIGH

Problem: Also VKPHRYRPGTV [H3-5_Y41] ?
Solution: LOW

Problem: Also KKCTRYIDCDR [ASPA_Y64_L69R] ?
Solution: LOW

Problem: Also LVLIKYLPEWT [PSEN1_Y240_F237L] ?
Solution: MEDIUM

Problem: Also VDGSLYETHPQ [HK1_Y417_K418E] ?
Solution: HIGH

Problem: Also MPLDQYSPSFP [FGFR1_Y776] ?
Solution: MEDIUM

Problem: Also VVLVSYVPFSQ [SH2B1_Y624_S627F] ?
Solution: MEDIUM

Problem: Also TILEHYRRTHC [MYBPC3_Y1119_V1115I] ?
Solution: LOW

Problem: Also LHSEAYLKYIE [PBRM1_Y1610] ?
Solution: HIGH

Problem: Also NKKYHYRELPV [ERN2_Y860_H858Y] ?
Solution: LOW

Problem: Also GQECEYPPTQD [METAP2_Y137] ?
Solution: MEDIUM

Problem: Also QDLTDYLMKIL [ACTA2_Y190_R185Q] ?
Solution: HIGH

Problem: Also NCLRVYVAGRF [CRB1_Y711_E710V] ?
Solution: MEDIUM

Problem: Also FIILIYAMKKK [SLCO1B1_Y645_YF] ?
Solution: LOW

Problem: Also HKLSFYEFDFE [BTK_Y40_YF] ?
Solution: HIGH

Problem: Also PELINYHQHFS [BTK_Y361_N365Y_YF] ?
Solution: MEDIUM

Problem: Also PTFKHYANSTQ [SLC12A3_Y70_E68K_YF] ?
Solution: MEDIUM

Problem: Also HEGKIYEFNQV [ZNF665_Y162_YF] ?
Solution: HIGH

Problem: Also LPEENYQVLRF [ARHGAP1_Y365] ?
Solution: HIGH

Problem: Also VPLLEYFWDIF [CDAN1_Y712_R714W_YF] ?
Solution: MEDIUM

Problem: Also AKAEIYEMRPL [COX10_Y97] ?
Solution: HIGH

Problem: Also ARLEYCENEKK [IRS1_Y47_Y47C] ?
Solution: MEDIUM

Problem: Also DLDLTYIYPNI [PTEN_Y27] ?
Solution: HIGH

Problem: Also GHEFIYVDRMQ [PDGFRB_Y581_P584R_YF] ?
Solution: HIGH

Problem: Also TAGEPYHDIRF [BAP1_Y223] ?
Solution: MEDIUM

Problem: Also AAVDTVCRHNY [HLA-DRB1_Y107_Y107V] ?
Solution: MEDIUM

Problem: Also CTTIHYNFLCN [TP53_Y234_M237L_YF] ?
Solution: MEDIUM

Problem: Also SGPRHYTIAAL [TTR_Y125_R124H] ?
Solution: MEDIUM

Problem: Also TDKLFYIFTSG [SLC27A4_Y243_YF] ?
Solution: MEDIUM

Problem: Also STGRSYAGVAV [KLHL3_Y577] ?
Solution: LOW

Problem: Also EDSEYYKAFEE [CASQ2_Y179] ?
Solution: MEDIUM

Problem: Also PLYSKYWPNHI [GREB1L_Y1560_R1558S] ?
Solution: HIGH

Problem: Also IMNLLYHVVGW [GBA_Y412_T408M] ?
Solution: HIGH

Problem: Also PLLLSYYLIKW [NUP160_Y773] ?
Solution: LOW

Problem: Also KDFETYQSFQN [CTNND2_Y1157_P1159S_YF] ?
Solution: HIGH

Problem: Also ARTNEYKIIRT [INA_Y87] ?
Solution: MEDIUM

Problem: Also LAAAKYKLNVD [SMARCA2_Y1190] ?
Solution: LOW

Problem: Also FLAVGDHKPHI [IDS_Y225_Y225D] ?
Solution: MEDIUM

Problem: Also PKGIGYGQGAG [CSRP3_Y73] ?
Solution: MEDIUM

Problem: Also CEHFSYYGMKA [SLC15A2_Y60_R57H] ?
Solution: HIGH

Problem: Also SSPQPYLVPFL [TAF4_Y652] ?
Solution: MEDIUM

Problem: Also RDEHGYISRCF [HSPB1_Y133_Q128R] ?
Solution: HIGH

Problem: Also REGAKYVSHDA [ASS1_Y113_G117D] ?
Solution: HIGH

---

Target: MERTK (UniProt Q12866)
Sequence (Q12866 whole entry, looked up): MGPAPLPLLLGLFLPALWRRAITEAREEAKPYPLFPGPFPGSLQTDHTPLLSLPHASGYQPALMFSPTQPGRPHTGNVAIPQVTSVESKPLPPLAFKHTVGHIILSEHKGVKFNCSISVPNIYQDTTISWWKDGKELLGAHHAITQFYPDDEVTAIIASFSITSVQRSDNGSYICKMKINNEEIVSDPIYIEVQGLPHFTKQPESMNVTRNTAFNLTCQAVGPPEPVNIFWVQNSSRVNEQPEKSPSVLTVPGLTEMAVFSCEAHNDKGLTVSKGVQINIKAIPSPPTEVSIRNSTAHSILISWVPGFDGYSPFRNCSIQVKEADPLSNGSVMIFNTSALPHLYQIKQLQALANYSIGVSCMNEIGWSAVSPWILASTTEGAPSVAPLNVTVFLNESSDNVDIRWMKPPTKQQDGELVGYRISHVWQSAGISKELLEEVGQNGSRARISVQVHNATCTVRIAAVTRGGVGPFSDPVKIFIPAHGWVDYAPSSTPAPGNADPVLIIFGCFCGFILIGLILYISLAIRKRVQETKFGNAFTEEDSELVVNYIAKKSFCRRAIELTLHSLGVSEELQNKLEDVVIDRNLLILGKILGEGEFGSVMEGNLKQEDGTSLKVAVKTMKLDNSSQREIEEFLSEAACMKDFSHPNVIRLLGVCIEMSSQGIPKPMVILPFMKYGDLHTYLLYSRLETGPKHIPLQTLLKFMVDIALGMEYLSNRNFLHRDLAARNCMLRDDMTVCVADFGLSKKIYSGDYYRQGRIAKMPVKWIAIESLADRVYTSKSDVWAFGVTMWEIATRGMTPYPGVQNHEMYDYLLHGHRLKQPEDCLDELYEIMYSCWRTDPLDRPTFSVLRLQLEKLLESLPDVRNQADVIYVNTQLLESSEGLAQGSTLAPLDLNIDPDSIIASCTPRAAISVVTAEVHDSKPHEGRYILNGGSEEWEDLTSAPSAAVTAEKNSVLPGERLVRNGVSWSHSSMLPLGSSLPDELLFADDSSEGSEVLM
Assay: phosphorylation enrichment, bacterial display (enrichment ratio); higher = better substrate or ligand; peptides without Tyr show the background
MEASURED METRIC: phosphorylation enrichment
Answer with a bare number; do not write a unit.

Problem: # phosphorylation enrichment lookup, item TINPIYEHVGY [CHN1_Y143]
Solution: 12.2

Problem: Also HLDRSYSYSYS [PEAR1_Y890_R885H] ?
Solution: 0.583

Problem: Also SGIYQYNIAKF [FOXL2_Y83_I84N] ?
Solution: 9.83

Problem: Also RGLQVYHRRNA [LRP2_Y2010] ?
Solution: 1.2

Problem: Also GRLVEYDIDEV [SMS_Y134] ?
Solution: 0.489

Problem: Also SVGVPYEPPEV [TP53_Y220_V217G] ?
Solution: 0.485

Problem: Also ALTRSYIREKV [CYP2C8_Y243] ?
Solution: 0.369

Problem: Also RDEHGYISRCF [HSPB1_Y133_Q128R] ?
Solution: 0.565

Problem: Also GRRNTYFASIA [ACADM_Y352_YF] ?
Solution: 0.466

Problem: Also VNFDYYTVNLG [GFPT1_Y367_D366Y] ?
Solution: 4.02

Problem: Also QEGPEYWDGNT [HLA-B_Y83_R86G] ?
Solution: 0.709

Problem: Also SGIYQYIIAKF [FOXL2_Y83] ?
Solution: 8.1

Problem: Also YCIDHYLGKEM [G6PD_Y202_R198C] ?
Solution: 0.64

Problem: Also KLIMEYLPYGS [JAK2_Y931] ?
Solution: 0.395

Problem: Also NHYKIYNPCAE [PTEN_Y68_L70P] ?
Solution: 0.427

Problem: Also TDHLQYFDSNK [ARAP1_Y359_R358Q] ?
Solution: 0.607

Problem: Also DTMQTYNGNDE [TSPAN7_Y131_A127T] ?
Solution: 0.382

Problem: Also VRVQLYDPDFM [CYP4A22_Y100_Y104F] ?
Solution: 1.08

Problem: Also VPANRYDLLRL [FARSB_Y72_C76R] ?
Solution: 0.451

Problem: Also CLNAIYQNNLT [GSR_Y158_R153C] ?
Solution: 0.563

Problem: Also KVPELYEIHTE [BCR_Y554_K558T] ?
Solution: 0.508

Problem: Also IVRSLYEDLED [VHL_Y185] ?
Solution: 0.424

Problem: Also FLAVGDHKPHI [IDS_Y225_Y225D] ?
Solution: 0.271

Problem: Also AGQEDYDRLRP [CDC42_Y64] ?
Solution: 0.471

Problem: Also WIPIQCPIISE [NOG_Y222_Y222C] ?
Solution: 0.373

Problem: Also QDLTDYLMKIL [ACTA2_Y190_R185Q] ?
Solution: 0.809

Problem: Also SIIKDYFHRGA [GATM_Y203] ?
Solution: 0.397

Problem: Also YGSGNYNVFGN [HNRNPA2B1_Y300_D302V] ?
Solution: 0.639

Problem: Also APAHKYHGGGG [HBD_Y146_L142P] ?
Solution: 0.549
